Data provenance is patent US20230220057A1.

- Target or test system: recombinantly produced human-NGF (human, UniProt P01138 122-241, limits assumed)
- Sequence (P01138 122-241 limits assumed): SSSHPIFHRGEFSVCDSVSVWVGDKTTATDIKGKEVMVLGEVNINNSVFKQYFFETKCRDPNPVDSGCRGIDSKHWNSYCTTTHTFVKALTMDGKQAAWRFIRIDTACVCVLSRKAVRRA
- Experiment summary: ELISA, human NGF coated, IgG titrated
Reported endpoint: EC50 (ng/mL)
Please state the figure in ng/mL; there is no need to write the unit.

Some solved cases for reference:
| Binder | EC50 / ng/mL |
| --- | --- |
| Ab51 (antibody, human IgG1, V domains shown) VH: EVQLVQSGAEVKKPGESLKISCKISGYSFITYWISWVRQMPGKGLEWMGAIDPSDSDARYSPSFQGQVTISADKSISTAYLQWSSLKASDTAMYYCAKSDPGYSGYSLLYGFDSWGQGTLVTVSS VL: DIVMTQTPLSSPVTLGQPASISCRSSQSLVQRNGNTYLSWLQQRPGQPPRLLIYQVSNRYSGVPDRFSGSGAGTDFTLKISRVEAEDVGVYYCGQGAHLPLTFGQGTKVEIK | 0.0221 |
| Ab21 (antibody, human IgG1, V domains shown) VH: EVQLVQSGAEVKKPGATVKISCKVSGYSFITYWISWVQQAPGKGLEWMGAIDPSDSDARYSPSFQGRVTITADKSTDTAYMELSSLRSEDTAVYYCAKSDPGYSGYSLLYGFDSWGQGTLVTVSS VL: DIVMTQTPLSSPVTLGQPASISCRSSQSLVQRNGNTYLSWLQQRPGQPPRLLIYQVSNRYSGVPDRFSGSGAGTDFTLKISRVEAEDVGVYYCGQGAHLPLTFGQGTKVEIK | 0.0403 |
| Ab34 (antibody, human IgG1, V domains shown) VH: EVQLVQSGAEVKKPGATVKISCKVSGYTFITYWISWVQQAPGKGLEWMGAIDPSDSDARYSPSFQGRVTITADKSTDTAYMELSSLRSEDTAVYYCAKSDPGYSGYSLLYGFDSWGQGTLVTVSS VL: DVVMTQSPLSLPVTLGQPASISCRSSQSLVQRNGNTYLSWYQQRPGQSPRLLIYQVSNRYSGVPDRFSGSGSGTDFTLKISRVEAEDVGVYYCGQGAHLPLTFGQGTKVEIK | 0.11 |
| Ab59 (antibody, human IgG1, V domains shown) VH: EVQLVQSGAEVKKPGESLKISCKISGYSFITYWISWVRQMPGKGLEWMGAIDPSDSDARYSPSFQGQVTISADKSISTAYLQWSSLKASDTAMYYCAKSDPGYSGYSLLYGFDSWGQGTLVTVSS VL: DIVMTQSPLSLPVTLGQPASISCRSSQSLVQRNGNTYLSWYQQRPGQPPRLLIYQVSNRYSGVPDRFSGSGSGTDFTLKISRVEAEDVGVYYCGQGAHLPLTFGQGTKVEIK | 0.0122 |
| Ab8 (antibody, human IgG1, V domains shown) VH: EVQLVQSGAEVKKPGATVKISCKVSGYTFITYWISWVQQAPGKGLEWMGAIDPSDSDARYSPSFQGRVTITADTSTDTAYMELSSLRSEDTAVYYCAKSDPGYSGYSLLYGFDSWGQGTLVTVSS VL: DIVMTQSPLSLPVTLGQPASISCRSSQSLVQRNGNTYLSWYQQRPGQSPRLLIYQVSNRYSGVPDRFSGSGSGTDFTLKISRVEAEDVGVYYCGQGAHLPLTFGQGTKVEIK | 0.0205 |

# get_value(readout='EC50', item= Ab37 (antibody, human IgG1, V domains shown) VH: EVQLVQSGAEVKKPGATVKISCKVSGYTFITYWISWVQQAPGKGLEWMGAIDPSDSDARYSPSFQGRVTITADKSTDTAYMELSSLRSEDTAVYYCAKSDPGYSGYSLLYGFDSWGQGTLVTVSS VL: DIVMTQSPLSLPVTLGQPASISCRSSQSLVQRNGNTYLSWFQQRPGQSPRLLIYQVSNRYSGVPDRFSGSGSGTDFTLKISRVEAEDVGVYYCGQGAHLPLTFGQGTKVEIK ) 0.0317

# get_value(readout='EC50', item= Ab35 (antibody, human IgG1, V domains shown) VH: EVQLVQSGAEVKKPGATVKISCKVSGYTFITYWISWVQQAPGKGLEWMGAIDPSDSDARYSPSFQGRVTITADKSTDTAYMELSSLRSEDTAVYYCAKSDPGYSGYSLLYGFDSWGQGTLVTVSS VL: DVVMTQSPLSLPVTLGQPASISCRSSQSLVQRNGNTYLSWYQQRPGQPPRLLIYQVSNRYSGVPDRFSGSGSGTDFTLKISRVEAEDVGVYYCGQGAHLPLTFGQGTKVEIK ) 0.0308

# get_value(readout='EC50', item= Ab10 (antibody, human IgG1, V domains shown) VH: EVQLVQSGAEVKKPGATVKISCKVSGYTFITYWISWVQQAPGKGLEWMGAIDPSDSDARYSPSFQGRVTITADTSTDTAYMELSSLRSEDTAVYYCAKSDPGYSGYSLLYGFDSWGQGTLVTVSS VL: DIVMTQSPLSLPVTLGQPASISCRSSQSLVQRNGNTYLSWFQQRPGQPPRLLIYQVSNRYSGVPDRFSGSGSGTDFTLKISRVEAEDVGVYYCGQGAHLPLTFGQGTKVEIK ) 0.0134

# get_value(readout='EC50', item= Ab61 (antibody, human IgG1, V domains shown) VH: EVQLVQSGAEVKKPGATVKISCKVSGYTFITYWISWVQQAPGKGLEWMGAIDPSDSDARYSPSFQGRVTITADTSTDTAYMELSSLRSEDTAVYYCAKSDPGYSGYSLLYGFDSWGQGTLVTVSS VL: DVVMTQSPLSLPVTLGQPASISCRSSQSLVQRNANTYLSWYQQRPGQSPRLLIYQVSNRYSGVPDRFSGSGSGTDFTLKISRVEAEDVGVYYCGQGAHLPLTFGQGTKVEIK ) 0.014

# get_value(readout='EC50', item= Ab4 (antibody, human IgG1, V domains shown) VH: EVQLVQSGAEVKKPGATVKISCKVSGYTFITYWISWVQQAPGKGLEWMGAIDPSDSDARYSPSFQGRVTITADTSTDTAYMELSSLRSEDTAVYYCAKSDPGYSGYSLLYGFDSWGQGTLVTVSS VL: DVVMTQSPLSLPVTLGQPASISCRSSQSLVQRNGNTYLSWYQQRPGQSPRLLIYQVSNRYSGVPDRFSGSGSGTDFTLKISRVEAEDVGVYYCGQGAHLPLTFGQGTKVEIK ) 0.0124
